System: HeLa
Test: SRB colorimetric assay of cell growth and viability, HeLa
Type: cell-based, human
Details: 48 hours exposure, SRB; read-out: LC50 HELA
REPORTED METRIC: CC50
Value and unit, in that order.

The reported value for C/C=C1\NC(=O)[C@H](Cc2ccc([N+](=O)[O-])cc2)NC(=O)[C@@H](C(C)C)NC(=O)[C@@H]([C@@H](C)CC)NC(=O)[C@H](NC(=O)[C@H](NC(=O)[C@H](CCCN)NC(=O)[C@H]2CCCN2C(=O)[C@H](NC(=O)[C@@H](NC(=O)[C@@H](NC(=O)[C@H](NC(=O)CC[C@@H](C)CC)C(C)C)[C@@H](C)O)C(C)C)C(C)C)[C@@H](C)CC)[C@@H](C)OC(=O)[C@H](C(C)C)NC1=O [Compound 73, [Phe(4-NO2)^3, (4S)-MeHex^14]-KF] in terms of CC50 is 450 nM

----------
System: PANC-1
Assay: SRB colorimetric assay of cell growth and viability, PANC-1
Assay type: cell-based, human
Conditions: 48 hours exposure
Where a SMILES comes first, the peptide text is derived from it. Bridges are numbered along the chain shown (N, C = ends). [ ]: non-standard residue; d: D form. The star is where a group is joined. d(aIle) = CC[C@H](C)[C@@H](N)C(=O)O; d(aThr) = C[C@@H](O)[C@@H](N)C(=O)O; Hexanoyl(5-Me) = CC(C)CCCC(=O)*; Orn = NCCC[C@H](N)C(=O)O; Dhb = C/C=C(\N)C(=O)O
Answer each item with its documented GI50.
One number for each entry, in nM.

[
  {
    "MOLECULE": "C/C=C1\\NC(=O)[C@H](Cc2ccccc2)NC(=O)[C@@H](C(C)C)NC(=O)[C@@H]([C@@H](C)CC)NC(=O)[C@H](NC(=O)[C@H](NC(=O)[C@H](CCCN)NC(=O)[C@H]2CCCN2C(=O)[C@H](NC(=O)[C@@H](NC(=O)[C@@H](NC(=O)[C@H](NC(=O)c2ccc(C)cc2)C(C)C)[C@@H](C)O)C(C)C)C(C)C)[C@@H](C)CC)[C@@H](C)OC(=O)[C@H](C(C)C)NC1=O [Compound 19, [p-MeBza^14]-KF]",
    "REPORTED METRIC": "GI50",
    "UNIT TEXT": "nM",
    "RESULT VALUE": 2060
  }
]

The reported value for C/C=C1\NC(=O)[C@H](Cc2ccccc2)NC(=O)[C@@H](C(C)C)NC(=O)[C@@H]([C@@H](C)CC)NC(=O)[C@H](NC(=O)[C@H](NC(=O)[C@H](CCCN)NC(=O)[C@H]2CCCN2C(=O)[C@H](NC(=O)[C@@H](NC(=O)[C@H](CCC(=O)O)NC(=O)CCCC(C)C)C(C)C)C(C)C)[C@@H](C)CC)[C@@H](C)OC(=O)[C@H](C(C)C)NC1=O [Compound 56, [Glu^12, noD-Val^13]-KF] ({Hexanoyl(5-Me)}-EV[dV][dP][Orn][d(aIle)][d(aThr)][d(aIle)][dV]F[Dhb]V; ester 7-C) in terms of GI50 is 118

----------
System: PANC-1
Test: SRB colorimetric assay of cell growth and viability, PANC-1
Type: cell-based, human
Conditions: PANC-1; 48 hours exposure
Where a SMILES comes first, the peptide text is derived from it. Bridges are numbered along the chain shown (N, C = ends). [ ]: non-standard residue; d: D form. The star is where a group is joined. d(aIle) = CC[C@H](C)[C@@H](N)C(=O)O; d(aThr) = C[C@@H](O)[C@@H](N)C(=O)O; hCha = N[C@@H](CCC1CCCCC1)C(=O)O; Hexanoyl(5-Me) = CC(C)CCCC(=O)*; Phg = N[C@H](C(=O)O)c1ccccc1; Orn = NCCC[C@H](N)C(=O)O; Dhb = C/C=C(\N)C(=O)O
REPORTED METRIC: TGI PANC-1 (Molar)
Answers are plain numbers, in Molar.

Check out these entries, answers already filled in.
[
  {
    "MOLECULE": "C/C=C1\\NC(=O)[C@H](Cc2cccc(Cl)c2)NC(=O)[C@@H](C(C)C)NC(=O)[C@@H]([C@@H](C)CC)NC(=O)[C@H](NC(=O)[C@H](NC(=O)[C@H](CCCN)NC(=O)[C@H]2CCCN2C(=O)[C@H](NC(=O)[C@@H](NC(=O)[C@@H](NC(=O)[C@H](NC(=O)CCCC(C)C)C(C)C)[C@@H](C)O)C(C)C)C(C)C)[C@@H](C)CC)[C@@H](C)OC(=O)[C@H](C(C)C)NC1=O [Compound 82, [Phe(3-Cl)^3]-KF]",
    "TGI PANC-1 / Molar": "1.84E−06"
  },
  {
    "MOLECULE": "C/C=C1\\NC(=O)[C@H](Cc2ccccc2)NC(=O)[C@@H](C(C)C)NC(=O)[C@@H]([C@@H](C)CC)NC(=O)[C@H](NC(=O)[C@H](NC(=O)[C@H](CCCN)NC(=O)[C@H]2CCCN2C(=O)[C@H](NC(=O)[C@@H](NC(=O)CNC(=O)[C@H](NC(=O)CCCC(C)C)C(C)C)C(C)C)C(C)C)[C@@H](C)CC)[C@@H](C)OC(=O)[C@H](C(C)C)NC1=O [Compound 111, [Gly^12]-KF] ({Hexanoyl(5-Me)}-[dV]GV[dV][dP][Orn][d(aIle)][d(aThr)][d(aIle)][dV]F[Dhb]V; ester 8-C)",
    "TGI PANC-1 / Molar": "1.71E−06"
  },
  {
    "MOLECULE": "C/C=C1\\NC(=O)[C@H](Cc2ccc(F)c(F)c2)NC(=O)[C@@H](C(C)C)NC(=O)[C@@H]([C@@H](C)CC)NC(=O)[C@H](NC(=O)[C@H](NC(=O)[C@H](CCCN)NC(=O)[C@H]2CCCN2C(=O)[C@H](NC(=O)[C@@H](NC(=O)[C@@H](NC(=O)[C@H](NC(=O)CCCC(C)C)C(C)C)[C@@H](C)O)C(C)C)C(C)C)[C@@H](C)CC)[C@@H](C)OC(=O)[C@H](C(C)C)NC1=O [Compound 84, [Phe(3,4-F2)^3]-KF]",
    "TGI PANC-1 / Molar": "1.17E−06"
  },
  {
    "MOLECULE": "C/C=C1\\NC(=O)[C@H](CCC2CCCCC2)NC(=O)[C@@H](C(C)C)NC(=O)[C@@H]([C@@H](C)CC)NC(=O)[C@H](NC(=O)[C@H](NC(=O)[C@H](CCCN)NC(=O)[C@H]2CCCN2C(=O)[C@H](NC(=O)[C@@H](NC(=O)[C@@H](NC(=O)[C@H](NC(=O)CCCC(C)C)C(C)C)[C@@H](C)O)C(C)C)C(C)C)[C@@H](C)CC)[C@@H](C)OC(=O)[C@H](C(C)C)NC1=O [Compound 63] ({Hexanoyl(5-Me)}-[dV]TV[dV][dP][Orn][d(aIle)][d(aThr)][d(aIle)][dV][hCha][Dhb]V; ester 8-C)",
    "TGI PANC-1 / Molar": "2.10E−06"
  },
  {
    "MOLECULE": "C/C=C1\\NC(=O)[C@H](c2ccccc2)NC(=O)[C@@H](C(C)C)NC(=O)[C@@H]([C@@H](C)CC)NC(=O)[C@H](NC(=O)[C@H](NC(=O)[C@H](CCCN)NC(=O)[C@H]2CCCN2C(=O)[C@H](NC(=O)[C@@H](NC(=O)[C@@H](NC(=O)[C@H](NC(=O)CCCC(C)C)C(C)C)[C@@H](C)O)C(C)C)C(C)C)[C@@H](C)CC)[C@@H](C)OC(=O)[C@H](C(C)C)NC1=O [Compound 87, [Phg^3]-KF] ({Hexanoyl(5-Me)}-[dV]TV[dV][dP][Orn][d(aIle)][d(aThr)][d(aIle)][dV][Phg][Dhb]V; ester 8-C)",
    "TGI PANC-1 / Molar": "1.90E−06"
  }
]

Give measured TGI PANC-1 for every item shown.
1. C/C=C1\NC(=O)[C@H](Cc2ccccc2)NC(=O)[C@@H](C(C)C)NC(=O)[C@@H]([C@@H](C)CC)NC(=O)[C@H](NC(=O)[C@H](NC(=O)[C@H](CCCN)NC(=O)[C@H]2CCCCN2C(=O)[C@H](NC(=O)[C@@H](NC(=O)[C@@H](NC(=O)[C@H](NC(=O)CC[C@@H](C)CC)C(C)C)[C@@H](C)O)C(C)C)C(C)C)[C@@H](C)CC)[C@@H](C)OC(=O)[C@H](C(C)C)NC1=O [Compound 60, [D-Pip^9, (4S)-MeHex^14]-KF]
2. C/C=C1\NC(=O)[C@H](Cc2ccccc2)NC(=O)[C@@H](C(C)C)NC(=O)[C@@H]([C@@H](C)CC)NC(=O)[C@H](NC(=O)[C@H](NC(=O)[C@H](CCCN)NC(=O)[C@H]2CCCN2C(=O)[C@H](NC(=O)[C@@H](NC(=O)[C@H](CC(C)C)NC(=O)[C@H](NC(=O)CCCC(C)C)C(C)C)C(C)C)C(C)C)[C@@H](C)CC)[C@@H](C)OC(=O)[C@H](C(C)C)NC1=O [Compound 113, [Leu^12]-KF] ({Hexanoyl(5-Me)}-[dV]LV[dV][dP][Orn][d(aIle)][d(aThr)][d(aIle)][dV]F[Dhb]V; ester 8-C)
3. C/C=C1\NC(=O)[C@H](Cc2ccccc2)NC(=O)[C@@H](C(C)C)NC(=O)[C@@H]([C@@H](C)CC)NC(=O)[C@H](NC(=O)[C@H](NC(=O)[C@H](CCCN)NC(=O)[C@H]2CCCN2C(=O)[C@H](NC(=O)[C@@H](NC(=O)[C@H](CCC(N)=O)NC(=O)[C@H](NC(=O)CCCC(C)C)C(C)C)C(C)C)C(C)C)[C@@H](C)CC)[C@@H](C)OC(=O)[C@H](C(C)C)NC1=O [Compound 119, [Gln^12]-KF] ({Hexanoyl(5-Me)}-[dV]QV[dV][dP][Orn][d(aIle)][d(aThr)][d(aIle)][dV]F[Dhb]V; ester 8-C)

["6.70E−06", "4.89E−06", "1.99E−06"]
